Target: T1, human ferroportin (SLC40A1) fused in frame with GFP (human) (UniProt Q9NP59)
T1 sequence (looked up): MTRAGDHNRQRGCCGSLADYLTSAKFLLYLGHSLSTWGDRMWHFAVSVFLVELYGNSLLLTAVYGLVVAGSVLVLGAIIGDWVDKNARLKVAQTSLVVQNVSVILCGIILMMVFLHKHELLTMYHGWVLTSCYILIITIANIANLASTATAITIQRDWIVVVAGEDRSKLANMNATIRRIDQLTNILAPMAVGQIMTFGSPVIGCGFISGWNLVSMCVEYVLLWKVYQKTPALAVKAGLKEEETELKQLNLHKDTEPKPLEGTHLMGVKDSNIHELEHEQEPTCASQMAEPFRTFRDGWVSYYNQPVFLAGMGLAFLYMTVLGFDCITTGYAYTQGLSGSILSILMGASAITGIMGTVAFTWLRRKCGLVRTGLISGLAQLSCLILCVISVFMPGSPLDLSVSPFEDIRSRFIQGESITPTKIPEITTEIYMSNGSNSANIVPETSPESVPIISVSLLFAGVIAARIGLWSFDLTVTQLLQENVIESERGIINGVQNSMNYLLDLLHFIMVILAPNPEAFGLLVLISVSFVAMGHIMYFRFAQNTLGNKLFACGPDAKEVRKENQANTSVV
Experiment: cell-based or functional assay
Positions of bridges follow the written chain, without caps; N, C: chain ends. Non-standard residues stand in square brackets, D forms with d. Groups on a side chain read outwards from the residue. *: point of attachment. PEG12 = NCCOCCOCCOCCOCCOCCOCCOCCOCCOCCOCCOCCOCCC(=O)O; Dip = N[C@H](C(=O)O)C(c1ccccc1)c1ccccc1; Palmitoyl = CCCCCCCCCCCCCCCC(=O)*; β3hF = N[C@H](CC(=O)O)Cc1ccccc1; Isovaleryl = CC(C)CC(=O)*; βAla = NCCC(=O)O
MEASURED QUANTITY: IC50: FPN internalisation (nM)

Field: example entries. Status: answers known.
>  <BINDER>
Isovaleryl-DTHFPCI[dK]FK([PEG12-Palmitoyl])CK-NH2 (disulfide 6-11 (inferred)) [Seq. No. 334]

>  <MEASURED QUANTITY>
IC50: FPN internalisation

>  <READOUT UNIT>
nM

>  <ENDPOINT VALUE>
32

$$$$
>  <BINDER>
Isovaleryl-DTH[Dip]PCII[β3hF]K([PEG12-Palmitoyl])[dK]C-NH2 (disulfide 6-12 (inferred)) [Seq. No. 331]

>  <MEASURED QUANTITY>
IC50: FPN internalisation

>  <READOUT UNIT>
nM

>  <ENDPOINT VALUE>
24

$$$$
>  <BINDER>
Isovaleryl-DTH[Dip]PCI[βAla][β3hF][dK]C-NH2 (disulfide 6-11 (inferred)) [Seq. No. 323]

>  <MEASURED QUANTITY>
IC50: FPN internalisation

>  <READOUT UNIT>
nM

>  <ENDPOINT VALUE>
10.6

$$$$

[P] DTHXPCIKXKKC (N-term isovaleric acid; 4 Dpa; 8 (D)Lys; 9 Dpa; 10 Lys(PEG12_Palm); 11 (D)Lys; C-term NH2) [Seq. No. 345]
[Q] DTHXXCIKFKKC (N-term isovaleric acid; 4 Dpa; 5 bhPro; 8 (D)Lys; 10 Lys(PEG12_Palm); 11 (D)Lys; C-term NH2) [Seq. No. 350]
Lower IC50: FPN internalisation: P or Q ? When you have decided, please share the label of that item. Q
